Test system: HEK-293T
Protocol details: Multiplex assay against HEK293T
Assay type: toxicity, cell-based
Details: human, 24 h, 10 µM, compound concentration 10 uM, replicate 1
Test readout: Total Cell Count
Please respond with just the number, no unit label.

* COc1cc2nc(N3CCN(C(=O)c4ccco4)CC3)nc(N)c2cc1OC.Cl [PRAZOSIN HYDROCHLORIDE] | 463

Q) For the compound CC(C)(O)C(=O)N1CCN(c2ccc(C(F)(F)F)c(C3=C(c4c[nH]c5ccccc45)C(=O)NC3=O)c2)CC1 , what Total Cell Count is on record?
A) 387

Q) For the compound OCCCNc1cc(-c2ccnc(Nc3cccc(Cl)c3)n2)ccn1 , what Total Cell Count is on record?
A) 237
